# Experimental System: receptor 5.24 (Carassius auratus, UniProt Q9PW88)
# Construct: The receptor 5.24 full length cDNA detects 1-2 bands in genomic DNA blots; expressed in transfected cells; host or cells: HEK 293 cells expressing SV40 large T antigen (293-TSA)
# Sequence (Q9PW88 25-877): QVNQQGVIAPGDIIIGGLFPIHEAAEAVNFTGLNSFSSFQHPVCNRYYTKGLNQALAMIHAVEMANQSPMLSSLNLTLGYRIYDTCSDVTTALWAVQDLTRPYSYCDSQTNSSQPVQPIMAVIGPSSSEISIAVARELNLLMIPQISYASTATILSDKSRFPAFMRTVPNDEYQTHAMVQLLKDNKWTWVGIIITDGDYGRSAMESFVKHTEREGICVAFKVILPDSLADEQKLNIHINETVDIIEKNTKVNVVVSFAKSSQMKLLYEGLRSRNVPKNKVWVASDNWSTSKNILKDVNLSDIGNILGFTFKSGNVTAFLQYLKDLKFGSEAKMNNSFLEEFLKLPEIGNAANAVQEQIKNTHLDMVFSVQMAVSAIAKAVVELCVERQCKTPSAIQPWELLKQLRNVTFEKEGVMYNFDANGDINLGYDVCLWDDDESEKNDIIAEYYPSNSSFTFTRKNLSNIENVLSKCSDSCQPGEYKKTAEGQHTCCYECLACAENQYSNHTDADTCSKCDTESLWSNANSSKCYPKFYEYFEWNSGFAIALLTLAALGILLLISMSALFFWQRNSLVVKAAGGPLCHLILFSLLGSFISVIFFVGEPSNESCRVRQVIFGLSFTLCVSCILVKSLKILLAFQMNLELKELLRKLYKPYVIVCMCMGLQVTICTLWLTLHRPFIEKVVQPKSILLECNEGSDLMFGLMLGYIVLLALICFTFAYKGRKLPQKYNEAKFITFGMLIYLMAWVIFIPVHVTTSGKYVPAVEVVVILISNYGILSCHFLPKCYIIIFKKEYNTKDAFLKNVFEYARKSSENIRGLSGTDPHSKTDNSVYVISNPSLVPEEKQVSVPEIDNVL
# Assay Text: evoked currents in Xenopus oocytes expressing receptor 5.24 (two-electrode voltage clamp)
# Assay type: cell-based, goldfish
Measured Quantity: activation of receptor 5.24 (evoked currents), in words

smiles_code=N[C@@H](Cc1ccccc1)C(=O)O result="little or no response"
smiles_code=N[C@@H](Cc1c[nH]c2ccccc12)C(=O)O result="little or no response"
